- experimental.system: T1, Cyno CD33 full length, expressed on HEK293F cells (cynomolgus monkey)
- T1 construct: HEK293F cells transduced with lentivirus containing full length cyno CD33 (Genbank XP_005590138.1); also called cyCD33
- run.description: flow cytometry, HEK293F cells expressing cyno CD33
reported.property: MFI at 0.6 nM mAb (MFI)

binder	readout.units	value.observed
C33B96 (antibody, IgG1, V domains shown, huIgG1 F405L; also called C33F101; C33H99/C33L37) VH: EVQLVESGGGLVQPGGSLRLSCAASGFTFSSYWMTWVRPAPGKGLEWVANIKRDGGEKYYVDSVKGRFTISRDNAANSLYLQMNSLRVEDTAVYYCARPFYDHFDYWGQGTLVTVSS VL: SYVLTQPPSVAVAPGQTARITCGGSNIGKISVHWYQQKAGQAPVLVVHDDRARPSGIPERLSGSNSGTTATLTISRVEVGDEADYYCQVWNSSSVHPVFGGGTKLTVL	MFI	11600
C33B80 (antibody, IgG1, V domains shown, huIgG1 F405L; also called C33F85; C33H76/C33L39) VH: EVQLLESGGGLVQPGGSLRLSCAASGFTFNYAMSWVRQAPGKGLEWVSAISGSGGSTYYADSVKGRFTISRDISKNTLYLQMNSLRAEDTAVYYCARTYNSGYYDGDFDYWGQGTLVTVSS VL: QSALTQPASVSGSPGQSIPISSTGTSSDDGKNNIVSWYQQHPGKAPKLMIYKDSKRPSGVSNRFSGSKSGNTASLTISGLQADDEADYHCCSYAGASNHVVFGGGTKLTVL	MFI	109
C33B79 (antibody, IgG1, V domains shown, huIgG1 F405L; also called C33F84; C33H74/C33L38) VH: QVQLVESGGGVVQPGRSLRLSCAASRFTFSSYGMHWVRQAPGKGLEWVAVISYDGSNKYYADSVKGRFTISRDNSKNTLYLQMNSLRAEDTAVHYCAKDFRSFDWLPPDSASYHGMDVWGQGTTVTVSS VL: SYELTQPPSVSVPPGQTASITCSGDKLGDKYACWYQQKPGQSPVLVIYQDNKRPSGIPERFSGSNSGNTATLTISGTQAMDEADYYCQAWGRNTVVFGGGTKLTVL	MFI	1080
